assayNotes: Clinical pharmacokinetics of treosulfan in plasma and urine
Type: in vivo, human
testContext: human, plasma, intravenous, 14 g/m^2, AUC, day −6, patients
valueKind: AUC (µg·h/mL)
State just the number; it will be interpreted in µg·h/mL.

Q: Report AUC for CS(=O)(=O)OC[C@H](O)[C@@H](O)COS(C)(=O)=O [treosulfan, L‐threitol‐1,4‐bis‐methanesulfonate] please.
A: 1420

* * *

measuredOn: CYP3A4 (Homo sapiens, UniProt P08684)
Sequence (P08684 whole entry): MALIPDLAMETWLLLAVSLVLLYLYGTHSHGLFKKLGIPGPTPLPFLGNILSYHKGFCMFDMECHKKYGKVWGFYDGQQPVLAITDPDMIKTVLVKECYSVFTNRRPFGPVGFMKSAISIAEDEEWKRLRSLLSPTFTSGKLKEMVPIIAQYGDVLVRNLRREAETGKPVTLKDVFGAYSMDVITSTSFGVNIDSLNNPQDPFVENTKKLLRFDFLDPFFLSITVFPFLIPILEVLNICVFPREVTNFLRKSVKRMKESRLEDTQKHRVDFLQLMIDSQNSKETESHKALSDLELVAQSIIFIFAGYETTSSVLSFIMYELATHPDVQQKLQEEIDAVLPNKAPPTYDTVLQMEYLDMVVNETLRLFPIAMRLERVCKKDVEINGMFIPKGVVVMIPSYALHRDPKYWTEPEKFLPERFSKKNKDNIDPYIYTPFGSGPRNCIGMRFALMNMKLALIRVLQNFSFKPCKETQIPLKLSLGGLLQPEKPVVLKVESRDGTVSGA
valueKind: Ki (mM)
State just the number; it will be interpreted in mM.

Q: State its Ki on CYP3A4 (Homo sapiens, UniProt P08684): CS(=O)(=O)OC[C@H](O)[C@@H](O)COS(C)(=O)=O [treosulfan, L‐threitol‐1,4‐bis‐methanesulfonate]
A: 1.21

The origin of these recorded values is paper PMC9291915.
